- System: human APOE RNA
- Experiment summary: Dose-dependent inhibition of human APOE RNA in differentiated SH-SY5Y cells, free uptake, 5 days (Example 5)
- Format: cell-based
- Condition details: 20,000 nM, 5 days (Table 13)
- Procedure: Modified oligonucleotides selected from the examples above were tested at various doses in differentiated SH-SY5Y cells. The modified oligonucleotides were tested in a series of experiments that had the same culture conditions. Differentiated SH-SY5Y cells plated at a density of 10,000 cells per well were treated by free uptake with various concentrations of modified oligonucleotide as specified in the tables below. […]
Strand notation (5' to 3'): a small letter for the sugar, then the base; units joined by * are phosphorothioate-linked, units joined directly phosphodiester-linked; [ ] holds rarer units or linkages, { } end groups; capitals alone tell only the bases. [ms] = mesyl phosphoramidate linkage; e = 2'-O-(2-methoxyethyl) (MOE); k = constrained ethyl (cEt); [5mC] = 5-methylcytosine; d = 2'-deoxy (DNA)
Measured parameter: APOE RNA (% UTC)
Reply with just the number (in % UTC).

Here are 3 substances together with their reported answers.
Aes^mCeoTeoTesGesGksTdsGdzAdzAdzTds^mCdsTdsTdsTdsAdzTksTksAesAe (eA*e[5mC]eTeT*eG*kG*dT*dG[ms]dA[ms]dA[ms]dT*d[5mC]*dT*dT*dT*dA[ms]kT*kT*eA*eA) [Compound No. 1757576]    18
Aks^mCeoTeoTesGesGksTdsGdzAdzAdzTds^mCdsTdsTdsTdsAdzTksTksAesAe (kA*e[5mC]eTeT*eG*kG*dT*dG[ms]dA[ms]dA[ms]dT*d[5mC]*dT*dT*dT*dA[ms]kT*kT*eA*eA) [Compound No. 1809635]    20
TezTeoGeoGksTdsGdzAdzAdzTds^mCdsTdsTdsTdsAdzTksTksAesAesAes^mCe (antisense eT[ms]eTeGkG*dT*dG[ms]dA[ms]dA[ms]dT*d[5mC]*dT*dT*dT*dA[ms]kT*kT*eA*eA*eA*e[5mC]) [Compound No. 1809814]    33

[in] # return recorded APOE RNA (% UTC) for entry ^mCksTksTksGdzGdzTdzGdzAdzAdzTds^mCdsTdsTdsTdsAdsTdsTksAksAdzAk (antisense k[5mC]*kT*kT*dG[ms]dG[ms]dT[ms]dG[ms]dA[ms]dA[ms]dT*d[5mC]*dT*dT*dT*dA*dT*kT*kA*dA[ms]kA) [Compound No. 1785602]
[out] 6

====

# APOE RNA (% UTC) per record follows
- Test system: human APOE RNA
- Experiment summary: Dose-dependent inhibition of human APOE RNA in HepG2 cells, electroporation, 50,000 cells per well, RT-PCR normalized to GAPDH (Example 4, Tables 8-10)
- Type: cell-based
- Condition details: 8,000 nM; HepG2, electroporation, 16-hour treatment
- Description: Modified oligonucleotides selected from the examples above were tested at various doses in HepG2 cells. The modified oligonucleotides were tested in a series of experiments that had the same culture conditions. Each experiment is identified in separate tables below. HepG2 cells plated at a density of 50,000 cells per well were treated by electroporation with various concentrations of modified oligonucleotide as specified in the tables below. […]
Strand notation (5' to 3'): a small letter for the sugar, then the base; units joined by * are phosphorothioate-linked, units joined directly phosphodiester-linked; [ ] holds rarer units or linkages, { } end groups; capitals alone tell only the bases. e = 2'-O-(2-methoxyethyl) (MOE); k = constrained ethyl (cEt); [5mC] = 5-methylcytosine; d = 2'-deoxy (DNA)
Write down the numeric answer in % UTC and omit the unit.

1757581 (eT*eTeGeGkT*dG*dA*dA*dT*d[5mC]*dT*dT*dT*dA*dT*eTeAeA*eA*e[5mC]; antisense) [Compound 1757581]    15
1757566 (eA*e[5mC]eTkTkG*dG*dT*dG*dA*dA*dT*d[5mC]*dT*dT*dT*eAeTeT*eA*eA; antisense) [Compound 1757566]    17

Here's the next entry for you.
[in] Indicate the recorded APOE RNA (% UTC) value for this substance: 1757585 (eT*eTeGkGkT*dG*dA*dA*dT*d[5mC]*dT*dT*dT*dA*dT*kTeAeA*eA*e[5mC]; antisense) [Compound 1757585]
[out] 12

====

- System: human APOE RNA
- Experiment summary: Dose-dependent inhibition of human APOE RNA in HepG2 cells, electroporation, 50,000 cells per well, RT-PCR normalized to GAPDH (Example 4, Tables 8-10)
- Format: cell-based
- Condition details: 82 nM; HepG2, electroporation, 24-hour treatment
Strand notation (5' to 3'): a small letter for the sugar, then the base; units joined by * are phosphorothioate-linked, units joined directly phosphodiester-linked; [ ] holds rarer units or linkages, { } end groups; capitals alone tell only the bases. [ms] = mesyl phosphoramidate linkage; k = constrained ethyl (cEt); [5mC] = 5-methylcytosine; d = 2'-deoxy (DNA)
Measured parameter: APOE RNA (% UTC)
Write the figure, then the unit, nothing else.

The cases that follow already have their APOE RNA (% UTC) on record.
1746809 (k[5mC]*dT[ms]kT*dG[ms]kG*dT[ms]dG[ms]dA[ms]dA[ms]dT*d[5mC]*dT*dT*dT*dA[ms]dT*dT[ms]kA*kA*kA; antisense) [Compound 1746809]    74 % UTC
1747051 (k[5mC]*kT*dT[ms]kG*dG[ms]kT*dG[ms]dA[ms]dA[ms]dT*d[5mC]*dT*dT*dT*dA[ms]dT*kT*dA[ms]dA[ms]kA; antisense) [Compound 1747051]    128 % UTC
1746787 (k[5mC]*kT*dT[ms]dG[ms]dG[ms]kT*dG[ms]dA[ms]dA[ms]dT*d[5mC]*dT*dT*dT*dA[ms]dT*kT*kA*dA[ms]kA; antisense) [Compound 1746787]    97 % UTC
1746795 (k[5mC]*kT*dT[ms]kG*dG[ms]dT[ms]dG[ms]dA[ms]dA[ms]dT*d[5mC]*dT*dT*dT*dA[ms]dT*kT*dA[ms]kA*kA; antisense) [Compound 1746795]    108 % UTC
1753989 (k[5mC]*dT[ms]kT*dG[ms]kG*dT*dG[ms]dA[ms]dA[ms]dT*d[5mC]*dT*dT*dT*dA[ms]kT*dT[ms]kA*dA[ms]kA; antisense) [Compound 1753989]    79 % UTC
1746801 (k[5mC]*dT[ms]dT[ms]kG*kG*dT[ms]dG[ms]dA[ms]dA[ms]dT*d[5mC]*dT*dT*dT*dA[ms]dT*kT*dA[ms]kA*kA; antisense) [Compound 1746801]    99 % UTC

Okay, now this substance:
[in] Hello, please tell me recorded APOE RNA (% UTC) for this one: 1746813 (k[5mC]*dT[ms]dT[ms]kG*dG[ms]kT*dG[ms]dA[ms]dA[ms]dT*d[5mC]*dT*dT*dT*dA[ms]dT*dT[ms]kA*kA*kA; antisense) [Compound 1746813]
[out] 101 % UTC

====

Property: APOE RNA (% UTC); scope: individual substances
- Tested on: human APOE RNA
- Experiment summary: Dose-dependent inhibition of human APOE RNA in HepG2 cells, electroporation, 50,000 cells per well, RT-PCR normalized to GAPDH (Example 4, Tables 8-10)
- Assay type: cell-based
- Condition details: 512 nM; HepG2, electroporation, 16-hour treatment
Strand notation (5' to 3'): a small letter for the sugar, then the base; units joined by * are phosphorothioate-linked, units joined directly phosphodiester-linked; [ ] holds rarer units or linkages, { } end groups; capitals alone tell only the bases. [ms] = mesyl phosphoramidate linkage; e = 2'-O-(2-methoxyethyl) (MOE); k = constrained ethyl (cEt); [5mC] = 5-methylcytosine; d = 2'-deoxy (DNA)
Give the quantity in % UTC, number only.

1757544: mixed MOE/cEt gapmer TTGGTGAATCTTTATTAA, sugar ekeeeddddddddeeeee, linkages soossssssssssooss (eT*kTeGeG*eT*dG*dA*dA*dT*d[5mC]*dT*dT*dT*eAeTeT*eA*eA) [compound 1757544]    75

[in] Using the record for 1757567 (eA*e[5mC]eTeTeG*dG*dT*dG*dA*dA*dT*d[5mC]*dT*dT*dT*kAeTeT*eA*eA; antisense) [Compound 1757567] , state its measured APOE RNA (% UTC).
[out] 64

[in] Supply APOE RNA (% UTC) value. Item: 1757570 (eA*e[5mC]eTeTkG*dG*dT*dG*dA*dA*dT*d[5mC]*dT*dT*dT*kAkTeT*eA*eA; antisense) [Compound 1757570]
[out] 26

[in] Give a short answer stating reported APOE RNA (% UTC) for 1757561: mixed MOE/cEt gapmer TTGGTGAATCTTTATTAA, sugar eeekkddddddddkeeee, linkages soossssssssssooss (eT*eTeGkG*kT*dG*dA*dA*dT*d[5mC]*dT*dT*dT*kAeTeT*eA*eA) [compound 1757561] .
[out] 71

[in] Write down APOE RNA (% UTC) measured for item 1757559: mixed MOE/cEt gapmer TTGGTGAATCTTTATTAA, sugar eeeekddddddddkeeee, linkages soossssssssssooss (eT*eTeGeG*kT*dG*dA*dA*dT*d[5mC]*dT*dT*dT*kAeTeT*eA*eA) [compound 1757559]
[out] 89

[in] Supply APOE RNA (% UTC) value. Item: 1757557: mixed MOE/cEt gapmer TTGGTGAATCTTTATTAA, sugar eeeeeddddddddeekke, linkages soossssssssssooss (eT*eTeGeG*eT*dG*dA*dA*dT*d[5mC]*dT*dT*dT*eAeTkT*kA*eA) [compound 1757557]
[out] 89

[in] Given 1757554: mixed MOE/cEt gapmer TTGGTGAATCTTTATTAA, sugar kkeeeddddddddeeeee, linkages soossssssssssooss (kT*kTeGeG*eT*dG*dA*dA*dT*d[5mC]*dT*dT*dT*eAeTeT*eA*eA) [compound 1757554] , respond with its APOE RNA (% UTC).
[out] 71

[in] # return recorded APOE RNA (% UTC) for input Aes^mCeoTeoTesGesGksTdsGdzAdzAdzTds^mCdsTdsTdsTdsAdzTksTksAesAe (eA*e[5mC]eTeT*eG*kG*dT*dG[ms]dA[ms]dA[ms]dT*d[5mC]*dT*dT*dT*dA[ms]kT*kT*eA*eA) [Compound No. 1757576]
[out] 61

[in] Item 1766559 (eT*eTeGeGeT*dG[ms]dA[ms]dA[ms]dT*d[5mC]*dT*dT*dT[ms]dA[ms]dT*kTkAeA*eA*e[5mC]; antisense) [Compound 1766559] : provide APOE RNA (% UTC)
[out] 41
